# METHOD_SUMMARY: Acute toxicity in mice was determined
# Type: organism-based
# MEASUREMENT_SETUP: mouse, in vivo
REPORTED_PROPERTY: LD50 (mg/kg)
Output spec: scalar in mg/kg, unitless text.

LD50 reported for this compound CO[C@H]1C[C@H](O[C@H]2[C@H](C)O[C@@H](OC3/C(C)=C/CC4C[C@@H](C[C@]5(C=C[C@H](C)[C@@H](C(C)C)O5)O4)OC(=O)[C@@H]4C=C(C)[C@@H](O)[C@H]5OC/C(=C\C=C\[C@@H]3C)[C@]54O)C[C@@H]2OC)O[C@@H](C)[C@@H]1O (stereo partly specified) : 160
